// reported melting point per item

1) O=c1oc2c(O)c(O)ccc2cc1-c1ccc(F)cc1 [Compound 32] :: 259.8 to 260.7 °C
2) O=c1oc2c(O)cccc2cc1-c1ccc(F)cc1 [Compound 19, 8-Hydroxy-3-(4-fluorophenyl)-coumarin] :: 201.3 to 203.1 °C
3) O=c1oc2c(O)c(O)ccc2cc1-c1ccc(O)cc1 [Compound 30] :: 287.5 to 288.9 °C
4) O=c1oc2ccccc2cc1-c1ccc(F)cc1 [Compound 7, 3-(4-Fluorophenyl)-coumarin] :: 196.7 to 197.7 °C
5) COc1ccc2cc(-c3ccc(O)cc3)c(=O)oc2c1 [Compound 26, 7-Methoxy-3-(4-hydroxyphenyl)-coumarin] :: 209 to 209.8 °C
6) CCN(CC)c1ccc2cc(-c3ccc(O)cc3)c(=O)oc2c1 [Compound 41] :: 190.2 to 191.8 °C
7) O=c1oc2cc(O)cc(O)c2cc1-c1ccc(F)cc1 [Compound 31] :: 267 to 267.6 °C
8) Cc1ccccc1-c1cc2cccc(O)c2oc1=O [Compound 10, 8-Hydroxy-3-(2-methylphenyl)-coumarin] :: 212.7 to 213 °C

Consider the molecule shown here: Cc1ccc(-c2cc3cccc(O)c3oc2=O)cc1 [Compound 8, 8-Hydroxy-3-(4-methylphenyl)-coumarin] What is its recorded melting point?
211.7 to 212.5 °C

Consider the molecule shown here: O=c1oc2cc(O)ccc2cc1-c1ccccc1O [Compound 16, 7-Hydroxy-3-(2-hydroxyphenyl)-coumarin] What is its recorded melting point?
200.3 to 202.3 °C

Consider the molecule shown here: Cc1ccc(C)c(-c2cc3cccc(O)c3oc2=O)c1 [Compound 21] What is its recorded melting point?
183.2 to 187.4 °C

Consider the molecule shown here: COc1ccc(-c2cc3ccc(O)c(O)c3oc2=O)cc1 [Compound 34] What is its recorded melting point?
234.4 to 235.4 °C

Consider the molecule shown here: O=c1oc2cc(O)ccc2cc1-c1ccc(O)c(O)c1 [Compound 29] What is its recorded melting point?
306 to 307.8 °C

Consider the molecule shown here: COc1ccc(-c2cc3c(O)cc(O)cc3oc2=O)cc1OC [Compound 42] What is its recorded melting point?
322 to 324.1 °C

Consider the molecule shown here: COc1ccc(-c2cc3cccc(O)c3oc2=O)cc1OC [Compound 38] What is its recorded melting point?
162.8 to 163.8 °C

Consider the molecule shown here: COc1ccc2oc(=O)c(-c3ccc(O)cc3)cc2c1 [Compound 27, 6-Methoxy-3-(4-hydroxyphenyl)-coumarin] What is its recorded melting point?
195.6 to 197.2 °C

Consider the molecule shown here: Cc1ccc(C)c(-c2cc3ccc(O)cc3oc2=O)c1 [Compound 20] What is its recorded melting point?
189.1 to 190.6 °C

Consider the molecule shown here: Cc1ccc(-c2cc3ccc(O)c(O)c3oc2=O)cc1 [Compound 23] What is its recorded melting point?
226.8 to 227.5 °C
